Recorded values, source ChEMBL document CHEMBL1142924.

measurementTarget: UniProt P29274
Sequence (P29274 whole entry): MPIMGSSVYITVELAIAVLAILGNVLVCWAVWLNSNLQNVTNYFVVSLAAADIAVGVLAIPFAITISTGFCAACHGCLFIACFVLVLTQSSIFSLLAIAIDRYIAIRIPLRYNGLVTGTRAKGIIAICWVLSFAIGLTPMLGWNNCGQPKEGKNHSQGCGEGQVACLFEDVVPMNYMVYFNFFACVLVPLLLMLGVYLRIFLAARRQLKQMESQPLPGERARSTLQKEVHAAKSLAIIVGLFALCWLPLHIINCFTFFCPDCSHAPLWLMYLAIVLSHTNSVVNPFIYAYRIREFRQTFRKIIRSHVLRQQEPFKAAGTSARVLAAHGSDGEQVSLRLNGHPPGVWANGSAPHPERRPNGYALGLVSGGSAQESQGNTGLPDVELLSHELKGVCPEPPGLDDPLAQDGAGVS
experimentDescription: Displacement of [3H]CGS-21680 from human adenosine A2A receptor expressed in CHO cells
Assay type: cell-based
Parameters: concentration or dose not given beside the values
metricName: Activity (%)
Kindly provide the numeric value in % only, without the unit symbol.

CCNC(=O)[C@H]1O[C@@H](n2cnc3c(Nc4ccc(OCC(=O)Nc5ccccc5C(F)(F)F)cc4)ncnc32)[C@H](O)[C@@H]1O; 1

Item CCNC(=O)[C@H]1O[C@@H](n2cnc3c(Nc4ccc(OCC(=O)Nc5ccc(N6CCOCC6)cc5)cc4)ncnc32)[C@H](O)[C@@H]1O : provide Activity
1

Supply Activity value. Item: CCNC(=O)[C@H]1O[C@@H](n2cnc3c(Nc4ccc(OCC(=O)Nc5ccc6c(c5)OCO6)cc4)ncnc32)[C@H](O)[C@@H]1O
5

Specify reported Activity for the compound shown: CCNC(=O)[C@H]1O[C@@H](n2cnc3c(Nc4ccc(OCC(=O)NCc5ccc(OC)cc5)cc4)ncnc32)[C@H](O)[C@@H]1O
1

For the compound CCNC(=O)[C@H]1O[C@@H](n2cnc3c(Nc4ccc(OCC(=O)Nc5ccc(C(C)(C)C)cc5)cc4)ncnc32)[C@H](O)[C@@H]1O , report Activity.
1

Please report the measured Activity for CCNC(=O)[C@H]1O[C@@H](n2cnc3c(Nc4ccc(OCC(=O)Nc5ccc(Cl)cc5)cc4)ncnc32)[C@H](O)[C@@H]1O
35

----------
measurementTarget: Adenosine receptor A1 (Homo sapiens)
Sequence (P30542 whole entry): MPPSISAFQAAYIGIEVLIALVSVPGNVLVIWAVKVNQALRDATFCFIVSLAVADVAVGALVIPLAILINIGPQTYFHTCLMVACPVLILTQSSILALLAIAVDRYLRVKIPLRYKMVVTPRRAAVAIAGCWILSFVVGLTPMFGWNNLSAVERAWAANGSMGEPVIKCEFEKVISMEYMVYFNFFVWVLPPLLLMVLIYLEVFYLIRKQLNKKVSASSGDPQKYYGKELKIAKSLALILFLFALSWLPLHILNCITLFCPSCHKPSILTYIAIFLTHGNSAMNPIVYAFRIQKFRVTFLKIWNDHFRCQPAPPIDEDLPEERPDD
metricName: Ki (nM)
Numbers only here, please. The scale is nM.

CCNC(=O)[C@H]1O[C@@H](n2cnc3c(Nc4ccc(OCC(=O)NC5CCCCC5)cc4)nc(Cl)nc32)[C@H](O)[C@@H]1O; 30.8
CCNC(=O)[C@H]1O[C@@H](n2cnc3c(Nc4ccc(OCC(=O)NC5CCCCC5)cc4)ncnc32)[C@H](O)[C@@H]1O; 16.2
CCNC(=O)[C@H]1O[C@@H](n2cnc3c(Nc4ccc(OCC(=O)Nc5ccc(OC)cc5)cc4)ncnc32)[C@H](O)[C@@H]1O; 4.7
CCNC(=O)[C@H]1O[C@@H](n2cnc3c(Nc4ccc(OCC(=O)NCc5ccc(OC)cc5)cc4)ncnc32)[C@H](O)[C@@H]1O; 28.3

// fetch Ki; item: CCNC(=O)[C@H]1O[C@@H](n2cnc3c(Nc4ccc(OCC(=O)Nc5ccc6c(c5)OCO6)cc4)ncnc32)[C@H](O)[C@@H]1O ; system: Adenosine receptor A1 (Homo sapiens)
8.4

Using Adenosine receptor A1 (Homo sapiens) as the test system, report measured Ki of CCNC(=O)[C@H]1O[C@@H](n2cnc3c(Nc4ccc(OCC(=O)Nc5cc(OC)cc(OC)c5)cc4)ncnc32)[C@H](O)[C@@H]1O .
15.3

Provide measured Ki on Adenosine receptor A1 (Homo sapiens) for CCNC(=O)[C@H]1O[C@@H](n2cnc3c(Nc4ccc(OCC(=O)Nc5ccc(OC)cc5)cc4)nc(Cl)nc32)[C@H](O)[C@@H]1O please.
50.4

Enter recorded Ki with Adenosine receptor A1 (Homo sapiens) for CCNC(=O)[C@H]1O[C@@H](n2cnc3c(Nc4ccc(OCC(=O)Nc5ccccc5)cc4)ncnc32)[C@H](O)[C@@H]1O here.
8.5

Provide Ki, system Adenosine receptor A1 (Homo sapiens), entry CCNC(=O)[C@H]1O[C@@H](n2cnc3c(Nc4ccc(OCC(=O)Nc5ccc(N6CCOCC6)cc5)cc4)ncnc32)[C@H](O)[C@@H]1O
77.5
